test system: PPARg:RXRa DBDmut IVT, anti-RXR (DBD mutation: RXRa K156A/R161A, NR concentration 270 nM, RXRa partner concentration 90 nM); experiment: PBM binding z-score (relative to random genomic background probes); higher = stronger binding; sequences stand for … in GC…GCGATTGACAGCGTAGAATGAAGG
measurement kind: PBM binding z-score
Answer with the value's number alone.

CAAACTAGGTCACCGGAAGGTCGAAGTCCGCATG	8.58
CCTAGCAGGCCAGGCTCACTCAAGCATTTCGCTT	0.917
TCTTGTAGATCAACAGGAGGTTAAGCAAGATCGA	1.61
AGTCAAAGTTCACTAGGTAACGTACGATTCAGCT	3.29

Q: Find the measured PBM binding z-score of "CCTCGAAGGACAGAAGGTCAGAGCTGTCCGCTTT" and report it.
Ans: -0.0695

Q: Find the measured PBM binding z-score of "ATCTCTAGGTAAGACTGAGTTCAGTGAAGAACGC" and report it.
Ans: 1.52

###

Here the recorded PBM binding z-score is given for each entry.
test system: VDR homodimer (NR concentration 270 nM); assay: PBM binding z-score (relative to random genomic background probes); higher = stronger binding; sequences stand for … in GC…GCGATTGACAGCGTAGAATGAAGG
Answer with the value's number alone.

Here's what some known entries look like.
TCGAGTAGGTTAGTCGGCGCATTCAGCCAACATA	-0.26
TCTAGTTGCTCAAAGGTCACACACTCGAAATGCG	2.12
AATACAGGGTCATCGTAGGCCAGAGTACGCACAG	3.35
TAGTCTAGGTCAGATCGGGCCAGTATACGCTATA	-0.0113
ATATCTAGGTTAGCTGGGGTCATTCAGACTAGGC	5.14

Q: Find the measured PBM binding z-score of "ATATGTAGGTTCTCGGGTCATTCAGTTTGCGCAT" and report it.
Ans: 4.65

Q: Find the measured PBM binding z-score of "CCTACTGGGGCAAGGTCATTGATCAGTCAAAGCA" and report it.
Ans: 3.27

Q: Find the measured PBM binding z-score of "ATCTCTAGGTAAAGATAGTGCAGTGAATGCAAAT" and report it.
Ans: -0.144

Q: Find the measured PBM binding z-score of "TCTATTAGTTGAAGGGCAACAGACGAGTCCGTTT" and report it.
Ans: 1.55

Q: Find the measured PBM binding z-score of "TCTAGTTGGTCATAGGTCACACACTCGAAATGCG" and report it.
Ans: 1.63

Q: Find the measured PBM binding z-score of "TCGAGTAGGTTAGGGGCATTTAGAATGGCGTCGA" and report it.
Ans: 0.777

Q: Find the measured PBM binding z-score of "TCTAGTTGGTCACGGAGGTCGCACACGACGGGTA" and report it.
Ans: 1.18

Q: Find the measured PBM binding z-score of "TCATATAGGTAACAGGTGAAAGTCGGTGTGGTAA" and report it.
Ans: 0.21

Q: Find the measured PBM binding z-score of "CAAACTGGGTCACGAAAGGTCAAAGTCGAATGAC" and report it.
Ans: 3.72

Q: Find the measured PBM binding z-score of "TCATATAGTTAAAGGTGAAAGTCGAACGATATGA" and report it.
Ans: -0.0826

Q: Find the measured PBM binding z-score of "TAGCCTAGGTCATTGGGCCAGTACAGTACGCATC" and report it.
Ans: 1.28

Q: Find the measured PBM binding z-score of "CCTATTAGTTGACCATAAGGGCTACCGAAGCTCG" and report it.
Ans: 0.787

Q: Find the measured PBM binding z-score of "AAAGACAGGTGATGAAGGTAACTCAGGCTATCAT" and report it.
Ans: 0.111

Q: Find the measured PBM binding z-score of "CCGAGTAGGTTATGGGGCATCCAGGCAACGGTGA" and report it.
Ans: -0.188

Q: Find the measured PBM binding z-score of "CAAACTAGGTCACCGGAAGGTCAAAGTACGCATG" and report it.
Ans: 3.52

Q: Find the measured PBM binding z-score of "TAGCCTAGGCCAGATCGGGCCAGTATACGCTATA" and report it.
Ans: -0.924

Q: Find the measured PBM binding z-score of "CCTTACGGGTCAAGGTTATAGCTCGGGTGGTACG" and report it.
Ans: 1.18

Q: Find the measured PBM binding z-score of "CTCGAAAGGCCGTGCTCAGGTGAGTATACCAAAC" and report it.
Ans: -0.249

###

Here the recorded PBM binding z-score is given for each entry.
tested on: RARa homodimer (NR concentration 270 nM); assay: PBM binding z-score (relative to random genomic background probes); higher = stronger binding; sequences stand for … in GC…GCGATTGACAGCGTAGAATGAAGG
Answer with the value's number alone.

Here's what some known entries look like.
ACTATTAGTTGACTTAGGGCAGCCGATACGACGC	0.705
ATCTCTAGGTAACCAAGTTCATTGAATGCCGAAC	1.19
TATACAGGGTCAAAGGCCAGAGTTCGAATGTCGA	1.14
CCTCGGAGGACAGAAGGTCAGAGCTGTCCGCTTT	0.441
AGAATGAGGTTACCAAAGATCGGGGAAACGCTTG	-0.246
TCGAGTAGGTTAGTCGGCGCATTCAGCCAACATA	-0.479
GCAGACACGTGAAACGCAGGTAACTCAGGGTGGC	-0.899
TATACAGGGTCAAAGGCCAGAGGACGAATGTCGA	0.998

# input for lookup
Q: Find the measured PBM binding z-score of "CGTCCAAGGTCAAAGGGCAGTGAAGAGATGACGG" and report it.
Ans: 1.01

###

tested on: PXR:RXRa (NR concentration 270 nM, RXRa partner concentration 90 nM); experiment: PBM binding z-score (relative to random genomic background probes); higher = stronger binding; sequences stand for … in GC…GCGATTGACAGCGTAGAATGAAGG
measurement kind: PBM binding z-score
Answer with the value's number alone.

TTACCAAGGTGAGCTGAGGGCGTTGATCCAACTC	3.08
AACACAGGGTCACTAGGCCAGAGTAGGTACGAAT	3.16
CGAAGTAGGTCAGAACAGGACAGTGAAGGATGAT	0.897
TCTACTAGTTGAAGGGCAACCGACGAGTCCGTTT	0.458
TCTGCTAGGTCAACGATGCTCAGCTAATCTGCTA	0.886
CAAATTAGGTCAAGAGGTCAAAGTCCGCTTCCCG	6.49
TCTGCTAGGTCACTTGGTCAGCTAACGAGCTGCC	0.889
CGTCAAAGTTCAACTATGGTAACGTAAAGCACGC	4.94

Q: Find the measured PBM binding z-score of "GGAACGAGGGCAAAGTCGATAGCATCTGTCGACG" and report it.
Ans: 0.155

Q: Find the measured PBM binding z-score of "GCAGACAGGTGAAACGCGGGTAACTCAGGGTGGC" and report it.
Ans: -0.0302

Q: Find the measured PBM binding z-score of "TCTAGCAGGCCAGAGGGTCACTAAAGAGGTACGG" and report it.
Ans: 1.14

Q: Find the measured PBM binding z-score of "CCTTACGGGTCACGAGGTTATAACACGACGAGCG" and report it.
Ans: 4.38

###

tested on: RXRa DBDmut IVT, anti-RXR (DBD mutation: RXRa K156A/R161A, NR concentration 90 nM); test: PBM binding z-score (relative to random genomic background probes); higher = stronger binding; sequences stand for … in GC…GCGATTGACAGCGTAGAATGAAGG
Threshold rule: PBM binding z-score greater than or equal to 2 is Condition met; below that, Condition not met.

Answered examples (2):
CGTAGCAGGCCAATCTGGGTCACTCAAGGCTTGA	Condition not met
TCTTGTAGACCAGCAGGTTAAGAAAGCTGGCCAA	Condition not met

Q: API: above_or_equal(metric=PBM binding z-score, cutoff=2) for item "CGTCGAAGGTCAAAGGTCAGTGAAGAGATGACGG"
Ans: Condition met

Q: API: above_or_equal(metric=PBM binding z-score, cutoff=2) for item "CGACCTAGGTCAAGGACAGTGAATCTCCGCACGC"
Ans: Condition not met

Q: API: above_or_equal(metric=PBM binding z-score, cutoff=2) for item "TGAATGCGGTTAAAGATCAGGGAACGTGGCGTCG"
Ans: Condition not met

Q: API: above_or_equal(metric=PBM binding z-score, cutoff=2) for item "TATACAGGGTCAAAGGCCAGAGTACGAATGTCGA"
Ans: Condition met

###

tested on: PXR homodimer (NR concentration 270 nM); test: PBM binding z-score (relative to random genomic background probes); higher = stronger binding; sequences stand for … in GC…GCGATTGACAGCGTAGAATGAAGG
measurement kind: PBM binding z-score

Here's what some known entries look like.
CGTCCAAGGTCAATGGTAGGTCAGTGAAAGCATT	1.79
ATCTCTAGATAAAGATAGTTCAGTGAATGCAAAT	0.643
GCTAGTTGGTCAGTAATAGGTCACACACCGGTCG	0.429
GCGAATGGGGCATCAGCAGGTTACCATAACTTAA	-0.437
CGTCAAAGTTAAACTAAGGTAACGTAAAGCACGC	0.364

Q: Recall the reported PBM binding z-score of "CTACCAAGGTGAACAAGGTCGTGGATTACTATTC" on PXR homodimer (NR concentration 270 nM) and write it down.
Ans: 0.298

Q: Recall the reported PBM binding z-score of "TCTAGTAGTTGATTAGGGCAACCGAAACAGCGGA" on PXR homodimer (NR concentration 270 nM) and write it down.
Ans: -0.395
